All values here come from patent US20170298096A1.

ASSAYED_TARGET: T1, His-tagged P3028 (human, also: His-tag, terminus and sequence not given here)
T1 construct: in solution at 0.5 ug/mL over the peptide cards; found with anti-His-tag antibody and rabbit anti-mouse peroxidase (rampo); also called PGE73; not shown: His-tag
T1 peptide: VFDEFKPLVEEPQNLIK
ASSAY_METHOD_TEXT: PEPSCAN chip ELISA, His-P3028 in solution;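 further: score is the raw OD at 405 nm from peroxidase colour with ABTS, imaged by CCD camera before and after staining, with wells showing air bubbles set to zero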
No end group written: not given here.
Recorded RAMPO Score values for a group of binders are listed next.

{"columns": ["BINDER", "UNIT_OF_MEASUREMENT", "RAMPO Score"],
 "data": [
  ["KKLDTFFVKLSLFPER [SEQ ID NO 32]", "rampo score", 551],
  ["KKLDMFFVKLSLFTER [SEQ ID NO 305]", "rampo score", 475],
  ["KKLDTFFVKLQLFTER [SEQ ID NO 15]", "rampo score", 768]
]}
